Target: partially purified KSST (KSGal6ST) (Homo sapiens, UniProt O43916)
Sequence (O43916 1-411): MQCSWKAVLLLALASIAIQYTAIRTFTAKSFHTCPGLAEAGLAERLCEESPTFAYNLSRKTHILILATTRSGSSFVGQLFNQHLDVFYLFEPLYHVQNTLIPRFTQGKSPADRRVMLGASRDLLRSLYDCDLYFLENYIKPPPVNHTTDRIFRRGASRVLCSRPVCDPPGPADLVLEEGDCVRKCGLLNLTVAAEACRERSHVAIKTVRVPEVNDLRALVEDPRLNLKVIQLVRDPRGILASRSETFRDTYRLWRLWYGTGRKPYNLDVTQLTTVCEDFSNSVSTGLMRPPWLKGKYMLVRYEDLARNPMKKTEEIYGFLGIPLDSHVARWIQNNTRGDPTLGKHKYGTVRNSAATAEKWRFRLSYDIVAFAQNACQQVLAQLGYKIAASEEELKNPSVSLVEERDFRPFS
Assay: Effect of added salts and dithiothreitol on KSST activity (Reaction Mixture II)
Type: biochemical
Design: made in house; host or cells: COS-7 cells transfected with pCXNKSST (pCXN2 vector); extract partially purified over DEAE-Sephadex A-50 (non-adsorbed fraction) and Heparin-Sepharose CL-6B
Details: salt at final concentration of 5 mM instead of CaCl2; keratan sulfate receptor; Reaction Mixture II
1 (yes) if Sulfotransferase activity with added salt is below 20 pmol/minute/mg protein. 0 (no) if not; exact matches included in 0 (no).

RECORD_SMILES	CLASS_NAME
[Ba+2].[Cl-].[Cl-]	0 (no)
O=S(=O)([O-])[O-].[Fe+2]	1 (yes)
[Cl-].[Cl-].[Sr+2]	0 (no)
[Cl][Ni][Cl]	1 (yes)
[Ca+2].[Cl-].[Cl-]	0 (no)
[Cl-].[Cl-].[Mg+2]	1 (yes)
[Cl-].[Cl-].[Zn+2]	1 (yes)
[Cl][Mn][Cl]	0 (no)

query: Lab note: Sulfotransferase activity with added salt threshold 20 pmol/minute/mg protein. Does this compound come in strictly under it? `[Cl][Cu][Cl]`
result: 1 (yes)

query: Lab note: Sulfotransferase activity with added salt threshold 20 pmol/minute/mg protein. Does this compound come in strictly under it? `[Cl-].[Cl-].[Co+2]`
result: 0 (no)
